test_system: UniProtKB P53985
assay_details: Assay 4: MCT1-mediated lactate transport in BT20 breast cancer cells
Assay type: cell-based
cond: Table 27
reported_metric: IC50 (nM)

[
  {
    "smiles_input": "CC(C)(OCc1cc(-c2cccc(OC3CCC3)c2)n(-c2ccccc2F)n1)C(=O)O",
    "reported_metric": "IC50",
    "unit_label": "nM",
    "sign": ">",
    "assay_result": 100000
  },
  {
    "smiles_input": "CC(C)(OCc1cc(-c2cccc(OC3CC3)c2)n(-c2ccc(Cl)cc2Cl)n1)C(=O)O",
    "reported_metric": "IC50",
    "unit_label": "nM",
    "sign": ">",
    "assay_result": 33000
  },
  {
    "smiles_input": "CC(C)(OCc1cc(-c2cccc(OC3CC3)c2)n(-c2ccccc2N2CCCC2)n1)C(=O)O",
    "reported_metric": "IC50",
    "unit_label": "nM",
    "sign": "=",
    "assay_result": 38000
  },
  {
    "smiles_input": "CCn1ncc2cccc(-n3nc(COC(C)(C)C(=O)O)cc3-c3cccc(OC4CC4)c3)c21",
    "reported_metric": "IC50",
    "unit_label": "nM",
    "sign": "=",
    "assay_result": 38000
  },
  {
    "smiles_input": "CC(C)(OCc1cc(-c2cccc(OC3CC3)c2)n(-c2ccccc2C#N)n1)C(=O)O",
    "reported_metric": "IC50",
    "unit_label": "nM",
    "sign": ">",
    "assay_result": 100000
  }
]

###

test_system: MCT1 (Homo sapiens (Human))
assay_details: Assay 4: MCT1-mediated lactate transport in BT20 breast cancer cells
Assay type: cell-based
cond: Table 27
Reported IC50 by item:

[
  {
    "compound": "Cn1cnc2ccc(-c3cc(COC(C)(C)C(=O)O)nn3Cc3ccccc3Cl)cc21 [Example 248]",
    "unit_label": "nM",
    "sign": ">",
    "IC50": 100000
  },
  {
    "compound": "CC(C)(OCc1cc(-c2ccc3c(c2)OCO3)n(Cc2ccccc2Cl)n1)C(=O)O [Example 204]",
    "unit_label": "nM",
    "sign": ">",
    "IC50": 100000
  },
  {
    "compound": "CCn1ncc2ccc(-c3cc(COC(C)(C)C(=O)O)nn3Cc3ccccc3Cl)cc21 [Example 150]",
    "unit_label": "nM",
    "sign": "=",
    "IC50": 25000
  },
  {
    "compound": "CC(C)(OCc1cc(-c2cccc(OC3CC3)c2)n(-c2ccccc2N2CCC2)n1)C(=O)O [Example 232]",
    "unit_label": "nM",
    "sign": "=",
    "IC50": 29000
  },
  {
    "compound": "COc1ccccc1Cn1nc(COC(C)(C)C(=O)O)cc1-c1cccc(OC2CC2)c1 [Example 111]",
    "unit_label": "nM",
    "sign": "=",
    "IC50": 32000
  },
  {
    "compound": "CC(C)(OCc1cc(-c2cccc(OCC3COC3)c2)n(-c2ccccc2F)n1)C(=O)O [Example 158]",
    "unit_label": "nM",
    "sign": ">",
    "IC50": 100000
  }
]

###

assay_details: Pharmacokinetic assay in rat (IV 3 mg/kg, PO 10 mg/kg)
Assay type: in vivo
cond: Male Sprague-Dawley rat, oral bioavailability, PO 10 mg/kg
# maps each entry to its Rat F
reported_metric: Rat F (%)

[
  {
    "smiles_input": "COc1cc(OC)cc(-c2cc(COC(C)(C)C(=O)O)nn2Cc2ccccc2Cl)c1",
    "assay_result": 53
  },
  {
    "smiles_input": "CCn1ncc2ccc(-c3cc(COC(C)(C)C(=O)O)nn3-c3ccccc3N3CCCC3)cc21",
    "assay_result": 100
  },
  {
    "smiles_input": "CCOc1ccccc1Cn1nc(COC(C)(C)C(=O)O)cc1-c1cc(OC)cc(OC)c1",
    "assay_result": 55
  },
  {
    "smiles_input": "Cc1ccccc1-n1nc(COC(C)(C)C(=O)O)cc1-c1cccc(OC2CCC2)c1",
    "assay_result": 61
  }
]

###

test_system: UniProt:P53985
assay_details: Assay 4: MCT1-mediated lactate transport in BT20 breast cancer cells
Assay type: cell-based
cond: Table 27
IC50: recorded values

[
  {
    "molecule": "COc1cccc(-c2cc(COC(C)(C)C(=O)O)nn2CC2CCOCC2)c1 [Example 138]",
    "IC50": "> 100000 nM"
  },
  {
    "molecule": "Cn1cc(-c2cc(COC(C)(C)C(=O)O)nn2Cc2ccccc2Cl)cn1 [Example 205]",
    "IC50": "> 100000 nM"
  },
  {
    "molecule": "COc1cccc(-c2cc(COC(C)(C)C(=O)O)nn2-c2cccnc2)c1 [Example 115]",
    "IC50": "> 100000 nM"
  },
  {
    "molecule": "CC(C)(C)COc1cccc(-c2cc(COC(C)(C)C(=O)O)nn2-c2ccccc2N2CCC2)c1 [Example 155]",
    "IC50": "> 33000 nM"
  }
]

###

test_system: MCT1 (Homo sapiens (Human), UniProt P53985)
Sequence (P53985 whole entry): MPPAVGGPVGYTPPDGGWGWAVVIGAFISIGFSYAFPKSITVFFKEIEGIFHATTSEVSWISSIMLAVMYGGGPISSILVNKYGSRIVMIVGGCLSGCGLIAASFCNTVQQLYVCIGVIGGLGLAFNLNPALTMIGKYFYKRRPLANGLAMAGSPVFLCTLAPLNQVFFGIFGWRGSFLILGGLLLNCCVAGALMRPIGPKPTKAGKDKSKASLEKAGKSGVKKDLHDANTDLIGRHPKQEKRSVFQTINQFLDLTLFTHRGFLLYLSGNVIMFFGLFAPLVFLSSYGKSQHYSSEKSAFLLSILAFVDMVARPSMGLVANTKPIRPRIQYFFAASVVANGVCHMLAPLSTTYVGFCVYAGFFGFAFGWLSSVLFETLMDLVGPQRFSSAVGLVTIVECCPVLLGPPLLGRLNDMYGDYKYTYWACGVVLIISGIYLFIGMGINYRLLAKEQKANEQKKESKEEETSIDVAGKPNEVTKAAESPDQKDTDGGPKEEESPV
Sequence (P35613 140-385 partner): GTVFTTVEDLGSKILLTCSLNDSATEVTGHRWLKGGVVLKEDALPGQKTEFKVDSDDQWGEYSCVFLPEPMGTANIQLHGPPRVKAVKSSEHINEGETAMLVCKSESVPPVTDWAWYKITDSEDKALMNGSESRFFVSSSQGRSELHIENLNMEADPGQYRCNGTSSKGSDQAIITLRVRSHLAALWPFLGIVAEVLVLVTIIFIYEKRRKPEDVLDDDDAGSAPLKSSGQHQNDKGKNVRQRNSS
assay_details: Assay 4: MCT1-mediated lactate transport in BT20 breast cancer cells
Format: cell-based
cond: Table 27

[
  {
    "smiles_input": "CCn1ncc2ccc(-c3cc(COC(C)(C)C(=O)O)nn3Cc3ccccn3)cc21",
    "test_system": "MCT1 (Homo sapiens (Human), UniProt P53985)",
    "IC50": "> 100000 nM"
  },
  {
    "smiles_input": "COc1cc(OC)cc(-c2cc(COC(C)(C)C(=O)O)nn2Cc2ccccn2)c1",
    "test_system": "MCT1 (Homo sapiens (Human), UniProt P53985)",
    "IC50": "> 100000 nM"
  },
  {
    "smiles_input": "Cn1cnc2cccc(-n3nc(COC(C)(C)C(=O)O)cc3-c3cccc(OC4CC4)c3)c21",
    "test_system": "MCT1 (Homo sapiens (Human), UniProt P53985)",
    "IC50": "> 100000 nM"
  }
]

###

assay_details: Metabolic stability in human liver microsomes (in vitro t1/2)
Type: in vitro ADME
cond: human liver microsomes, 60 min
reported_metric: Human microsome % 60 min (%)

[
  {
    "smiles_input": "CCn1ncc2ccc(-c3cc(CO[C@](C)(CC)C(=O)O)nn3Cc3ccccc3Cl)cc21",
    "reported_metric": "Human microsome % 60 min",
    "unit_label": "%",
    "assay_result": 105
  },
  {
    "smiles_input": "CC[C@@](C)(OCc1cc(-c2cccc(OC)c2)n(Cc2ccccc2Cl)n1)C(=O)O",
    "reported_metric": "Human microsome % 60 min",
    "unit_label": "%",
    "assay_result": 82
  },
  {
    "smiles_input": "CC(C)(OCc1cc(-c2cccc(OC3CCC3)c2)n(-c2ccccc2Cl)n1)C(=O)O",
    "reported_metric": "Human microsome % 60 min",
    "unit_label": "%",
    "assay_result": 83
  },
  {
    "smiles_input": "CCOc1ccccc1Cn1nc(COC(C)(C)C(=O)O)cc1-c1cc(OC)cc(OC)c1",
    "reported_metric": "Human microsome % 60 min",
    "unit_label": "%",
    "assay_result": 78
  },
  {
    "smiles_input": "CC[C@@](C)(OCc1cc(-c2cc(OC)cc(OC)c2)n(-c2ccccc2Cl)n1)C(=O)O",
    "reported_metric": "Human microsome % 60 min",
    "unit_label": "%",
    "assay_result": 110
  },
  {
    "smiles_input": "CC(C)Cc1ncc(-c2cc(COC(C)(C)C(=O)O)nn2Cc2ccccc2Cl)o1",
    "reported_metric": "Human microsome % 60 min",
    "unit_label": "%",
    "assay_result": 80
  }
]
